B1: INTS4 (parent)
chain: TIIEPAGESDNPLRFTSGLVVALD

variants of: B1; test: protein stability index of a GFP-peptide fusion (GPS, HEK-293T) (PSI 1-6); higher = more stable; details: c terminus: a fixed tail appended;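 note: lentivirally expressed fusions sorted by FACS into six bins by GFP to DsRed ratio, PSI derived from sequencing read proportions per bin multiplied by bin number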
This section presents variants with their documented protein stability index values.
endpoint: protein stability index

# seq text, endpoint, experimental result
measured = [
    ("TIIEPAGESDNPLLFTSGLVVALD [R14L]", "protein stability index", 2.96),
    ("TIIEPAGESDNPLRFTSGLVVALA [D24A]", "protein stability index", 2.75),
    ("TIIEPAGESDNPLVFTSGLVVALD [R14V]", "protein stability index", 2.86),
    ("TIIEPAGESDNPLRFTSGLMVALD [V20M]", "protein stability index", 2.59),
    ("TIIEPAGRSDNPLRFTSGLVVALD [E8R]", "protein stability index", 3.15),
    ("TIIEPAGESDNPLRFTSGNVVALD [L19N]", "protein stability index", 4.11),
    ("TPIEPAGESDNPLRFTSGLVVALD [I2P]", "protein stability index", 3.9),
    ("TIIEPAGESDNPLCFTSGLVVALD [R14C]", "protein stability index", 2.62),
    ("TIIEPAGEADNPLRFTSGLVVALD [S9A]", "protein stability index", 2.57),
    ("TIIEPAGESDNCLRFTSGLVVALD [P12C]", "protein stability index", 2.52),
    ("TIIEPAGESDNPLRFTEGLVVALD [S17E]", "protein stability index", 3.73),
    ("TIIEPAGESDNPLRFTSGLVLALD [V21L]", "protein stability index", 2.89),
    ("TIIEPAGESDNPLRFTSGLVNALD [V21N]", "protein stability index", 3.63),
    ("TIIEPAGESDNPLRFTYGLVVALD [S17Y]", "protein stability index", 2.15),
    ("TIIEPAGDSDNPLRFTSGLVVALD [E8D]", "protein stability index", 2.88),
    ("TIIEPAGESDNPFRFTSGLVVALD [L13F]", "protein stability index", 2.33),
    ("TIIEPAGESDNALRFTSGLVVALD [P12A]", "protein stability index", 2.76),
    ("TIIEPAGESDNPLRFTPGLVVALD [S17P]", "protein stability index", 2.99),
    ("TIIEPAGESDNPLRFTSGLRVALD [V20R]", "protein stability index", 3.38),
    ("TIIEPAGESDNPLRFTSGLVVDLD [A22D]", "protein stability index", 3.8),
    ("TIIEPAGESDNPLRFTSGIVVALD [L19I]", "protein stability index", 2.71),
    ("TIIEQAGESDNPLRFTSGLVVALD [P5Q]", "protein stability index", 2.49),
    ("TMIEPAGESDNPLRFTSGLVVALD [I2M]", "protein stability index", 3.38),
    ("TIIEPAGESDNPLRFTSGLVVAID [L23I]", "protein stability index", 2.4),
    ("TIIEPAGESDNPLFFTSGLVVALD [R14F]", "protein stability index", 2.04),
    ("TIIEPAGESHNPLRFTSGLVVALD [D10H]", "protein stability index", 2.75),
    ("TIIEPAGETDNPLRFTSGLVVALD [S9T]", "protein stability index", 2.9),
    ("TIIEPAGESDNPLRFISGLVVALD [T16I]", "protein stability index", 2.21),
    ("TIIEPAGEHDNPLRFTSGLVVALD [S9H]", "protein stability index", 3.17),
    ("TIIEPAGESDNPLHFTSGLVVALD [R14H]", "protein stability index", 3.91),
    ("TIIEPAGESDNPLRFTSGLVDALD [V21D]", "protein stability index", 4.92),
    ("TIIEPAGESDNPLRFTNGLVVALD [S17N]", "protein stability index", 2.53),
    ("SIIEPAGESDNPLRFTSGLVVALD [T1S]", "protein stability index", 3.41),
    ("TIIEGAGESDNPLRFTSGLVVALD [P5G]", "protein stability index", 2.78),
    ("TIIEPAGESRNPLRFTSGLVVALD [D10R]", "protein stability index", 2.23),
    ("TIIEPAGESVNPLRFTSGLVVALD [D10V]", "protein stability index", 2),
    ("TIIEPAGESKNPLRFTSGLVVALD [D10K]", "protein stability index", 2.32),
    ("TIIEPAGESDNPLRFTSGLVVWLD [A22W]", "protein stability index", 1.87),
    ("TIIEPAGESDIPLRFTSGLVVALD [N11I]", "protein stability index", 2.42),
    ("TIIEPAQESDNPLRFTSGLVVALD [G7Q]", "protein stability index", 3.33),
    ("TIIEPAGESDNPLRFTSGSVVALD [L19S]", "protein stability index", 4.77),
    ("TIIECAGESDNPLRFTSGLVVALD [P5C]", "protein stability index", 2.56),
    ("TIIEPAGESDNPLRFTSELVVALD [G18E]", "protein stability index", 3.15),
    ("TIMEPAGESDNPLRFTSGLVVALD [I3M]", "protein stability index", 3.23),
    ("TIIEPAGHSDNPLRFTSGLVVALD [E8H]", "protein stability index", 2.23),
    ("TIIEPAGESDNPLRFTSGLVVSLD [A22S]", "protein stability index", 3.2),
    ("TIIEPAGESDNPLRFTSGQVVALD [L19Q]", "protein stability index", 4.05),
    ("TIIEPAGESDPPLRFTSGLVVALD [N11P]", "protein stability index", 2.27),
    ("TIIEPAGESDNPSRFTSGLVVALD [L13S]", "protein stability index", 3.86),
    ("TIIEPAGESDNPLRFTCGLVVALD [S17C]", "protein stability index", 1.52),
    ("TIIEPAGESDNPLRFTSGEVVALD [L19E]", "protein stability index", 4.34),
    ("TIIEPAGESDNPLRFRSGLVVALD [T16R]", "protein stability index", 3.35),
    ("TIIEPAGESDNPLRFKSGLVVALD [T16K]", "protein stability index", 3.02),
    ("TIIEPAGESSNPLRFTSGLVVALD [D10S]", "protein stability index", 2.72),
    ("TIIEPAGESDNPLRFTSGYVVALD [L19Y]", "protein stability index", 2.62),
    ("TIIEPAGESDNPLRGTSGLVVALD [F15G]", "protein stability index", 4.03),
    ("TIIEPAGESDNPLRFTSGLVVAMD [L23M]", "protein stability index", 3.26),
    ("TIIEPARESDNPLRFTSGLVVALD [G7R]", "protein stability index", 3.54),
    ("TIIEPAGGSDNPLRFTSGLVVALD [E8G]", "protein stability index", 2.32),
    ("TIIEPAGESDNPLRFTSGLVVHLD [A22H]", "protein stability index", 2.78),
    ("TIIEPAGESDNPLRFTSKLVVALD [G18K]", "protein stability index", 2.77),
    ("TIIEPAGEQDNPLRFTSGLVVALD [S9Q]", "protein stability index", 2.77),
    ("TIIEPAGESDNPLRFTSGLVTALD [V21T]", "protein stability index", 3.67),
    ("TIIEPAGESDNPLMFTSGLVVALD [R14M]", "protein stability index", 2.27),
    ("TIIEPAGESDNPLRFTSGLVVALH [D24H]", "protein stability index", 1.93),
    ("TIINPAGESDNPLRFTSGLVVALD [E4N]", "protein stability index", 2.09),
    ("TIIEPAGESDNPLRETSGLVVALD [F15E]", "protein stability index", 4.63),
    ("TIIEPAGESDNPLRFTSGLVKALD [V21K]", "protein stability index", 3.45),
    ("TIIEPAGESDEPLRFTSGLVVALD [N11E]", "protein stability index", 3.33),
    ("TIIEPAGESDNPLRFTSGLVVALQ [D24Q]", "protein stability index", 2.29),
    ("TIIEPAGESDNPLRFTSGLVHALD [V21H]", "protein stability index", 3.27),
    ("TIIEPAGESDNPLRFTSGLVVAED [L23E]", "protein stability index", 4.4),
    ("TIIEPAGESDNPLKFTSGLVVALD [R14K]", "protein stability index", 2.77),
    ("TIIEPAGESDNPLRFTTGLVVALD [S17T]", "protein stability index", 2.92),
    ("TIIEPAGESDNPLRFTSGLIVALD [V20I]", "protein stability index", 2.73),
    ("TIIEPAGESDNPLRFGSGLVVALD [T16G]", "protein stability index", 3.15),
    ("TIIEPYGESDNPLRFTSGLVVALD [A6Y]", "protein stability index", 2.19),
    ("TIIEPAGESDNPLRFTSGLVCALD [V21C]", "protein stability index", 3.48),
    ("TIIEPAGESDNPLRFTSGPVVALD [L19P]", "protein stability index", 3.72),
    ("PIIEPAGESDNPLRFTSGLVVALD [T1P]", "protein stability index", 3.06),
    ("TIIEPAGESDNPLRFTSGLQVALD [V20Q]", "protein stability index", 3.91),
    ("CIIEPAGESDNPLRFTSGLVVALD [T1C]", "protein stability index", 2.38),
    ("TIIEPAGESCNPLRFTSGLVVALD [D10C]", "protein stability index", 2.08),
    ("TIIEPHGESDNPLRFTSGLVVALD [A6H]", "protein stability index", 2.75),
    ("TIIEPAGESDNPLRFTSGLVVFLD [A22F]", "protein stability index", 2.03),
    ("TKIEPAGESDNPLRFTSGLVVALD [I2K]", "protein stability index", 2.89),
    ("TIIEPAKESDNPLRFTSGLVVALD [G7K]", "protein stability index", 2.94),
    ("TIIEPAGESDNQLRFTSGLVVALD [P12Q]", "protein stability index", 3.73),
    ("TIIEPAGESDNPARFTSGLVVALD [L13A]", "protein stability index", 3.81),
    ("TIIEPAGESDNPLRFTSGLVRALD [V21R]", "protein stability index", 3.67),
    ("TIHEPAGESDNPLRFTSGLVVALD [I3H]", "protein stability index", 3.9),
]
